procedure summary: Cytotoxicity in normal cell line (MTT)
Format: cell-based, human
condition info: human, Hs27 fibroblast cells
Where a SMILES comes first, the peptide text is derived from it.
value type: viability at 24 h, 32 µM (%)
API: value field is a number in %; no unit string.

Query :: Give its viability at 24 h, 32 µM value. Item: CC[C@H](C)[C@H](NC(=O)[C@H](CCCNC(=N)N)NC(=O)[C@H](CCC(N)=O)NC(=O)[C@@H](NC(=O)[C@@H](NC(=O)[C@H](CCCNC(=N)N)NC(=O)[C@H](CCCCN)NC(=O)[C@H](Cc1ccccc1)NC(=O)[C@H](CCC(=O)O)NC(=O)[C@@H](N)CCCCN)[C@@H](C)CC)C(C)C)C(=O)N[C@@H](CCCCN)C(=O)N[C@@H](CC(=O)O)C(=O)N[C@@H](Cc1ccccc1)C(=O)N[C@@H](CC(C)C)C(=O)N[C@@H](CCCNC(=N)N)C(=O)N[C@@H](CC(N)=O)C(N)=O [LL37-1, KEFKRIVQRIKDFLRN-NH2] (H-KEFKRIVQRIKDFLRN-NH2)
Result :: 95
